Biological target: T1, huFLT3-M227-Fc (human, UniProt P36888 27-543);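 further: octet BLI with scFvs from periplasmic extracts captured by anti-V5 antibody on streptavidin sensors, FLT3 protein associating 2 min then dissociating 5 min, 1:1 Langmuir fit for off-rate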
T1 construct: extracellular domain; also called FLT3 Mutant
T1 sequence (P36888 27-543 T227M): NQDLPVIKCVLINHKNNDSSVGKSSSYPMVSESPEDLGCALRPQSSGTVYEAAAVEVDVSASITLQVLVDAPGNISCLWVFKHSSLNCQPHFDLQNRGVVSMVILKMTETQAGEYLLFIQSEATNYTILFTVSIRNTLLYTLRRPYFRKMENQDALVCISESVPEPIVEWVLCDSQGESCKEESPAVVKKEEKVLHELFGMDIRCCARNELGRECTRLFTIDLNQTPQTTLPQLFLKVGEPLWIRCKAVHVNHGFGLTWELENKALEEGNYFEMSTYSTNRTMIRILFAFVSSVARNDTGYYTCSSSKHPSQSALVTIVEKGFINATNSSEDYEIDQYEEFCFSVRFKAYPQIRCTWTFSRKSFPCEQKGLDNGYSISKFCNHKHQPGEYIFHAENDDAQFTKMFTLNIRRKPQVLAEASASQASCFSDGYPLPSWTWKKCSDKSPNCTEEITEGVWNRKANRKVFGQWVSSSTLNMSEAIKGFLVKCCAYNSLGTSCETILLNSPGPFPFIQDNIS
Test: BLI
OUTCOME MEASURE: binding result

• Polypeptide No. 264 (scFv, V domains shown, scFv) VH: QVQLVQSGAEVKKPGSSVKVSCKASGYTLTELSMHWVRQAPGQGLEWMGGIIPISSATSIPQKFQGRVTITADESTSTAYMELSSLRSEDTAVYYCARGALYSSSPVRVVAGTKGWFDPWGQGTLVTVSS VL: DIQMTQSPSSLSASVGDRVTITCRASQDISNYLAWYQQKPGKAPKLLIYAASSLQSGVPSRFSGSGSGTDFTLTISSLQPEDFATYYCQQYYSYPLTFGGGTKVEIKR = binds
